Target: MeCP2-TBL1 interaction (MeCP2-SmBiT / TBL1-LgBiT) (Mus musculus, UniProt Q9QXE7)
Construct: expressed in transfected cells; crude lysate used as a cell-free assay
Sequence (Q9QXE7 166-527): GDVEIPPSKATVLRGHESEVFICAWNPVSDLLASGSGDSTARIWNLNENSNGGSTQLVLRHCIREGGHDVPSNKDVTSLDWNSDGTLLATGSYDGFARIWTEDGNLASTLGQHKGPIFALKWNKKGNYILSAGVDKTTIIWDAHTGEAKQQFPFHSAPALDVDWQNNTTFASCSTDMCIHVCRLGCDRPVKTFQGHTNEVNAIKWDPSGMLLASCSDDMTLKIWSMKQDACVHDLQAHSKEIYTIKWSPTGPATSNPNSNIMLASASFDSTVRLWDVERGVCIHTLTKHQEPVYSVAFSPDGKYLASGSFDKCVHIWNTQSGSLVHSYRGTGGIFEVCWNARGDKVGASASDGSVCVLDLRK
Experiment: MeCP2-TBL1 NanoLuc luciferase complementation assay (cell-free, extracts of transfected HEK293 cells);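 also: each compound tested at 20 µM final concentration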
Format: binding, human
Settings: primary screen of the Asinex library, sheet "Sargen output Asinex library", one well per compound
Excerpt: To facilitate the discovery of inhibitors of the interaction between MeCP2 and TBL1/TBLR1, we set out to devise a simple and scalable biochemical assay for measuring the interaction between these two proteins. We initially explored the possibility of screening compound libraries using a previously established fluorescence polarization assay that depends on purified recombinant TBL1/TBLR1[26]. […]
Readout Kind: Inhibition percent (%)
Numbers only, in %.

Examples with answers:
CC1(C)Oc2ccccc2[C@@H]2O[C@@H]3CCCN[C@@H]3C[C@H]21 ... -3.58
Cc1nccn1Cc1ccccc1C(=O)N1CCCC(c2cncc(Oc3ccccc3)n2)C1 (stereo not shown) ... -2.15
Cc1cccc(CN(CCc2c[nH]c3ccccc23)[C@@H]2CC[C@@H](NCc3ccccc3)[C@H]2O)c1 ... 3.88
CC(=O)Nc1ccc(NC(=O)CN2[C@H](Cc3ccccc3)C[C@]3(C)NC(=O)CCC[C@H]23)c(Cl)c1 ... 1.80
CCc1ccccc1NC(=O)CN1CC[C@@]2(NC(C)=O)CN(C(C)=O)[C@H](c3ccccc3)[C@H]2C1 ... -1.00

Here are 6 molecules. What values of Inhibition percent were reported for them?
1. Cc1cnc(C(=O)N2CCC3(CC2)CO[C@@H]2c4ccc(O)cc4OC(C)(C)[C@H]2C3)cn1
2. Cc1cccc(Cc2cccc(C3CCCN(C(=O)c4ccnc(-c5cnn(C)c5)c4)C3)n2)c1 (stereo not shown)
3. COc1ccc(C2CCCN2C(=O)Cn2cc(NC(=O)Cc3ccccc3F)cn2)cc1 (stereo not shown)
4. O=C(CN1C[C@@H](c2cc(F)cc(F)c2)[C@@]2(CCCCC(=O)N2)C1)Nc1ccnn1C1CCCC1
5. Cc1cc(Oc2ccccc2F)nc(C2CCN(C(=O)c3cncc(-c4cncnc4)c3)CC2)n1
6. COc1ccccc1Cc1ccc(C(=O)N2CCCC2c2cccc(-c3cncn3C)n2)cn1 (stereo not shown)

Solution:
1.04
2.04
-0.19
4.29
0.98
-1.25

* * *

tested on: PRKACA-PRKAR2A interaction (SmBiT-PRKACA / LgBiT-PRKAR2A), protein kinase A; set-up: NanoLuc complementation counter-screen in cell extract, PRKACA with PRKAR2A, loss of luminescence, detects NanoLuc interference; details: counter-screen for NanoLuc interference; 0.5 h, 20 µM; inhibitor
Structures can show the parent of a compound that is named as a salt. Square brackets hold non-standard residues; d marks the D form. Peptide text beside a SMILES is read from it. * marks the point of attachment. Nva = CCC[C@H](N)C(=O)O; Cbz = O=C(OCc1ccccc1)*
Readout Kind: Inh (PKA) (%)
One number for each entry, in %.

C=C1C(=O)[C@]23[C@H](O)[C@H]1CC[C@H]2[C@@]12CO[C@]3(O)[C@@H](O)[C@@H]1C(C)(C)CC[C@@H]2O ... 14.12
c1cc(-c2cnn3cc(-c4ccc(OCCN5CCCCC5)cc4)cnc23)ccn1 ... 19.2
COc1cc2c(cc1O)CC[C@@H]1[C@@H]2CC[C@]2(C)[C@@H](O)CC[C@@H]12 ... 12.97
CNCCc1ccccn1 [UM0132794:02, Betahistine 2HCl] ... 2.049
COC(=O)[C@@H](N)CCCNC(=N)N[N+](=O)[O-] [UM0141561:05, L-NAME hydrochloride] ... -1.626
CCCC(=O)OCOC(=O)C1=C(C)NC(C)=C(C(=O)OC)C1c1cccc(Cl)c1Cl (stereo not shown) [UM0142245:01, Clevidipine Butyrate] ... 81.79

Consider the record given below.
Problem: Tell me the measured Inh (PKA) of CCC[C@@H](C=O)NC(=O)[C@H](CC(C)C)NC(=O)[C@H](CC(C)C)NC(=O)OCc1ccccc1 [UM0141478:01, MG-115] (Cbz-Leu-Leu-[Nva]-aldehyde) , please.
Solution: 4.161
